- Study target: Cholecystokinin receptor type A (Homo sapiens)
- Sequence (P32238 whole entry): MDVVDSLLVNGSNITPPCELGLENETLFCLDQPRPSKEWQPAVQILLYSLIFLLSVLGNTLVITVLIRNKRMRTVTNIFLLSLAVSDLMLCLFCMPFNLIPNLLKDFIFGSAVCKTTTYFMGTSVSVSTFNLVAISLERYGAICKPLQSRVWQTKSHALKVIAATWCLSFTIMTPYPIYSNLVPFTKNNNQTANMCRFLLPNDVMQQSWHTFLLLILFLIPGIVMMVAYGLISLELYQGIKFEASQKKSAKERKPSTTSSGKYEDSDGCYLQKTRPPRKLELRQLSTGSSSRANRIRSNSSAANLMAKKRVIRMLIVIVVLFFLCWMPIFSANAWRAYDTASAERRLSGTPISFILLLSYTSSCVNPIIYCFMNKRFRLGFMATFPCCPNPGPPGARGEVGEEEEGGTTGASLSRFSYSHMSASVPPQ
- Assay method text: Agonist activity at human CCK1 receptor assessed as increase in CCK8-induced calcium release incubated in dark for 30 mins followed by light incubation for 30 mins measured by FLIPR assay
pEC50: −log10 of the molar value.
Metric: pEC50

As a guide, the following entries are already answered.
{"Molecule": "O=C(CN1C(=O)C(Cc2c[nH]c3ccccc23)c2nnc(-c3ccccc3)n2-c2ccccc21)N1CCC(Cc2ccccc2)C1 (mixture of isomers)", "Reported result": 5.88}
{"Molecule": "Cc1cccc(CC2CCCCN2C(=O)CN2C(=O)[C@@H](Cc3n[nH]c4ccccc34)c3nnc(-c4ccccc4)n3-c3ccccc32)c1 (stereo partly specified)", "Reported result": 6.17}

a. O=C1C(Cc2c[nH]c3ccccc23)c2nnc(-c3ccccc3)n2-c2ccccc2N1CC(=O)N1CCCCC1Cc1ccncc1 (mixture of isomers)
b. O=C1C(Cc2c[nH]c3ccccc23)c2nnc(-c3ccccc3)n2-c2ccccc2N1CC(=O)N1CCCCC1Cc1ccccn1 (mixture of isomers)
Between the two listed entries a and b , which has its pEC50 at the higher number? Let me know the label of the one you choose.
b
(b: 7.50, a: 6.38)

I. O=C1C(Cc2c[nH]c3ccccc23)c2nnc(-c3ccccc3)n2-c2ccccc2N1CC(=O)N1CCCC1c1ccccc1 (mixture of isomers)
II. CC(C)C1CCCCN1C(=O)CN1C(=O)C(Cc2c[nH]c3ccccc23)c2nnc(-c3ccccc3)n2-c2ccccc21 (mixture of isomers)
Please indicate which entry, I or II , has the lower recorded pEC50 value. Lab note: record the label of whichever item you select.
I
(I: 5.67, II: 6.31)

* * *

- Assay method text: Cmax in Sprague-Dawley rat plasma at 6 mg/kg, po
- Format: ADME, organism-based
- Set-up: dose 6 mg/kg, route oral
Metric: Cmax (ng/mL)
Write the answer as a number in ng/mL, unit excluded.

Please supply the value of reported Cmax for the item Cc1cc(C)cc(C[C@H]2CCCCN2C(=O)CN2C(=O)[C@@H](Cc3n[nH]c4ccccc34)c3nnc(-c4ccccc4)n3-c3ccccc32)c1
0.46

* * *

- Assay method text: Ratio free drug level in gut to portal system of Sprague-Dawley rat at 10 mg/kg, po administered as single dose measured after 4 hrs
- Format: ADME, organism-based
- Parameters: dose 10 mg/kg, route oral
Metric: Kp uu at 4 h
Kindly provide the number alone.

Determine from records and report Kp uu at 4 h for CC(C)N(Cc1ccccc1)C(=O)CN1C(=O)[C@@H](Cc2c[nH]c3ccccc23)c2nnc(-c3ccccc3)n2-c2ccccc21
65

src = ChEMBL document CHEMBL2016448
